- Method: NCI Yeast Anticancer Drug Screen. Data for the mlh1 rad18 strain (AID 175)
- Test Settings: S. cerevisiae mlh1 rad18 strain growth inhibition; at 5.0 µM (retest, dose inferred, filed as 0.5); stronger effect = higher value
About 79,000 compounds went through this panel and 15% of them were active in at least one assay; those are over-represented in the sample as a whole.
The threshold is inclusive: growth inhibition of exactly 20% counts as True; values below receive False.

Problem: Given the entry CC/C(=C(\c1ccccc1)c1ccc(OCCN(C)C)cc1)c1ccccc1 , answer whether its growth inhibition meets or surpasses 20%.
Solution: True

====

- Method: NCI Yeast Anticancer Drug Screen. Data for the mec2-1 strain (AID 157)
- Test Settings: S. cerevisiae mec2-1 strain, at 50.0 µM, stronger effect = higher value
This is part of a sample that, as a whole, favours compounds with a hit. Of some 79,000 tested, about 15% had one in any assay. The source made the active and inactive calls. Cut-off read from the data, not from the text of the source: active = growth inhibition above about 70%; inactive = the rest.
Overview of recorded growth inhibition for various compounds

- Compound: "CCCCCCCCCCCCCC[N+](C)(CC(=O)[O-])Cc1ccccc1 (centres undefined)"
  growth inhibition: "99.1% (active)"
- Compound: "CC1C(NNc2ccccc2)Oc2cc3c(cc2C1c1ccccc1O)OCO3 (centres undefined)"
  growth inhibition: "88.2% (active)"
- Compound: "COc1cc(C2SCC(=O)N2c2ccc(-c3ccc(-n4c(-c5ccccc5)nc5ccccc5c4=O)cc3)cc2)cc(OC)c1OC (centres undefined)"
  growth inhibition: "19.6% (inactive)"
- Compound: "COc1ccc(OC)c2cc3ccccc3cc12"
  growth inhibition: "85.2% (active)"
- Compound: "CC(=O)OCC(=O)C1(O)CCC2C3CCC4CCCCC4(C)C3CCC21C (centres undefined)"
  growth inhibition: "61.5% (inactive)"
- Compound: "CCc1ncnc2cc(OCC3CO3)c(OC)cc12 (centres undefined)"
  growth inhibition: "89.4% (active)"

Problem: Field request: growth inhibition | item: CNC1C(OC2C(OC3C(O)C(O)C(N=C(N)N)C(O)C3N=C(N)N)OC(C)C2(O)CO)OC(CO)C(O)C1O (centres undefined)
Solution: 93.5% (active)

Problem: Field request: growth inhibition | item: C/C(=N/NC(=S)N1CCCCCC1)c1cccc(/C(C)=N\NC(=S)N2CCCCCC2)n1
Solution: 91% (active)

Problem: Field request: growth inhibition | item: COC1=CC(=O)C(C2(OC(C)C)OC(=O)C(Cl)=C2Cl)=CC1=O (centres undefined)
Solution: 86.7% (active)

Problem: Field request: growth inhibition | item: CC(CC(C)(C)[N+](C)(C)C)[N+](C)(C)C (centres undefined)
Solution: 96% (active)

====

- Method: NCI Yeast Anticancer Drug Screen. Data for the bub3 strain (AID 167)
- Test Settings: S. cerevisiae bub3 mutant strain, at 50.0 µM
About 79,000 compounds went through this panel and 15% of them were active in at least one assay; those are over-represented in the sample as a whole. Active and inactive are the calls of the source. No stated cut-off is given here; in the data, active means growth inhibition above about 70%; inactive means the rest.
Select the matching outcome among active, inactive

Below, 3 molecules whose answers are already recorded.
- Molecule: "CCCCCCCCNC(=O)C1=C(C)NC(C)=C(C(=O)NCCCCCCCC)C1"
  Label Class: "inactive"
- Molecule: "COc1cccc2nc3ccccc3nc12"
  Label Class: "inactive"
- Molecule: "O=[N+]([O-])c1ccc2c(c1)C(N1CCN(CCO)CC1)Cc1ccc(F)cc1S2 (stereo unspecified)"
  Label Class: "inactive"

Problem: What did the test return for COc1ccc2c(c1)C(=O)c1ccccc1C2 ?
Solution: active

Problem: What did the test return for C/C(=N/NC(=S)N1CCCCCC1)c1cccc(/C(C)=N\NC(=S)N2CCCCCC2)n1 ?
Solution: active

Problem: What did the test return for OCC(Cn1cncn1)(c1ccc(F)cc1F)n1cncn1 (stereo unspecified) ?
Solution: active

Problem: What did the test return for BrCC[P+](c1ccccc1)(c1ccccc1)c1ccccc1 ?
Solution: active

Problem: What did the test return for COc1cc(CC2CC(c3ccc4c(c3)OCO4)OC2=O)cc(OC)c1OC (stereo unspecified) ?
Solution: inactive

Problem: What did the test return for O=c1c2ccccc2ncn1COCc1ccccc1 ?
Solution: active

Problem: What did the test return for O=C(Cc1csc2[n+]1C(=O)/C(=C/c1ccc(Cl)cc1)S2)Nc1ccccc1 ?
Solution: active

Problem: What did the test return for Nc1ccn(C2OC(CO)C3[O][Sn]([c]4ccccc4)([c]4ccccc4)[O]C32)c(=O)n1 (stereo unspecified) ?
Solution: active

====

Overview of recorded growth inhibition for various compounds
- Method: NCI Yeast Anticancer Drug Screen. Data for the mgt1 strain (AID 153)
- Test Settings: S. cerevisiae mgt1 mutant growth inhibition; at 11.0 µM; stronger effect = higher value
Compounds without any hit were thinned out: in the full panel of roughly 79,000, 15% have a hit.
Your answer is read as %, so omit the unit and give the number.

Sample records with growth inhibition:
- Compound: "O=C1C=CC(=Nc2ccc3c(c2)Cc2cc(NC(=O)C(F)(F)F)ccc2-3)O1"
  Quantity Unit: "%"
  growth inhibition: 12
- Compound: "O=[N+]([O-])/C=C/c1ccc2ccccc2c1"
  Quantity Unit: "%"
  growth inhibition: 100
- Compound: "COC(=O)C1=C(C)NC(C)=C(C(=O)OC)C1c1cccc(/[N+]([O-])=C/c2ccccc2)c1"
  Quantity Unit: "%"
  growth inhibition: 13
- Compound: "CCc1ncnc2cc(OCC3CO3)c(OC)cc12 (stereo unspecified)"
  Quantity Unit: "%"
  growth inhibition: -3

Problem: Field request: growth inhibition | item: Cc1ccc2ccc3cccc4ccc1c2c34
Solution: -3

Problem: Field request: growth inhibition | item: FC(F)(F)c1nc2nc(Cl)c(Cl)nc2n1CCCN1CCOCC1
Solution: 8

Problem: Field request: growth inhibition | item: O=C(c1ccc(Cl)cc1)C1OC12C(=O)Nc1ccccc12 (stereo unspecified)
Solution: 100

====

- Method: NCI Yeast Anticancer Drug Screen. Data for the rad50 strain (AID 155);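 also: 0% = growth of vehicle-only cultures of the same strain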
- Test Settings: S. cerevisiae rad50 strain growth inhibition; at 5.0 µM (retest, dose inferred, filed as 0.5); stronger effect = higher value
Compounds without any hit were thinned out: in the full panel of roughly 79,000, 15% have a hit.
The threshold is inclusive: growth inhibition of exactly 20% counts as Fulfilled; values below receive Not fulfilled.

Below, 3 molecules whose answers are already recorded.
- Molecule: "c1ccc2c(c1)Oc1cccc3cccc-2c13"
  Label Class: "Fulfilled"
- Molecule: "NNC(=O)CCc1ccc2ccc3ccccc3c2c1"
  Label Class: "Not fulfilled"
- Molecule: "Cc1ccc(Cl)c2[nH]c(-c3ccccc3)cc(=O)c12"
  Label Class: "Not fulfilled"

Problem: Given the entry CC(=O)Nc1ccc(SC(C)=O)cc1 , answer whether its growth inhibition meets or surpasses 20%.
Solution: Fulfilled

Problem: Given the entry c1ccc(-c2nc3cccnc3s2)cc1 , answer whether its growth inhibition meets or surpasses 20%.
Solution: Not fulfilled

Problem: Given the entry COc1ccccc1C(=O)OCC1CCCN2CCCCC12 (configuration not stated) , answer whether its growth inhibition meets or surpasses 20%.
Solution: Fulfilled

Problem: Given the entry COc1ccc(/C=C2\SC(=S)N(/C=C/c3nc4ccccc4[nH]c3=O)C2=O)cc1OC , answer whether its growth inhibition meets or surpasses 20%.
Solution: Not fulfilled

====

Overview of recorded growth inhibition for various compounds
- Method: NCI Yeast Anticancer Drug Screen. Data for the rad52 strain (AID 147);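 also: 0% = growth of vehicle-treated control cultures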
- Test Settings: S. cerevisiae rad52 mutant growth inhibition; at 11.0 µM; stronger effect = higher value
About 79,000 compounds went through this panel and 15% of them were active in at least one assay; those are over-represented in the sample as a whole. Activity calls are given as the source filed them. Rule as the data show it: active = growth inhibition above about 70%; inactive = the rest.

- Compound: "CNC1C(OC2C(OC3C(O)C(O)C(N=C(N)N)C(O)C3N=C(N)N)OC(C)C2(O)CO)OC(CO)C(O)C1O (configuration not stated)"
  growth inhibition: "2% (inactive)"

Problem: Field request: growth inhibition | item: CC1=C(C)Cc2c(O)ccc(O)c2C1
Solution: 25% (inactive)

Problem: Field request: growth inhibition | item: CC1=NN(c2cccc(Cl)c2)C(=O)C1
Solution: -22% (inactive)

Problem: Field request: growth inhibition | item: CC(=O)OC1CCC2(C)C(=CCC3C4CCC5(OC6CC(C)CN(C(C)=O)C6C5C)C(C)=C4C(=O)C32)C1 (configuration not stated)
Solution: 57% (inactive)

Problem: Field request: growth inhibition | item: O=C1Nc2ccc(Cl)c(I)c2C1=O
Solution: 7% (inactive)

Problem: Field request: growth inhibition | item: CCCCCCCCCCNC(=O)OCC
Solution: 11% (inactive)

====

Overview of recorded growth inhibition for various compounds
- Method: NCI Yeast Anticancer Drug Screen. Data for the wt2 strain (AID 169);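 also: 0% = growth of vehicle-treated yeast cultures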
- Test Settings: S. cerevisiae wt2 strain growth inhibition; at 33.0 µM; stronger effect = higher value
- Experimental: Growth inhibition of yeast strains with defined genetic alterations is measured as a screen for potential anti-cancer activity. Selected strains with alterations in DNA damage repair or cell cycle control were exposed to compounds and growth inhibition was measured relative to vehicle treated controls. The strain used in this assay is wt2
About 79,000 compounds went through this panel and 15% of them were active in at least one assay; those are over-represented in the sample as a whole.
Your answer is read as %, so omit the unit and give the number.

Sample records with growth inhibition:
- Compound: "Cn1c(=O)c2ccccc2c2ccccc21"
  Quantity Unit: "%"
  growth inhibition: 21
- Compound: "C=CC(C)(O)CCC1C(=C)C(O)CC2C(C)(C)CCCC12C (stereo not given)"
  Quantity Unit: "%"
  growth inhibition: 28

Problem: Field request: growth inhibition | item: CC(=O)OCc1ccc(O)c(C=O)c1
Solution: -11

Problem: Field request: growth inhibition | item: CC(=O)Nc1ccc2c(c1)C(=Nc1ccc(C(=O)O)cc1)c1ccccc1-2
Solution: 9

Problem: Field request: growth inhibition | item: c1ccc2c(c1)c1ncccc1c1nccnc21
Solution: 19

Problem: Field request: growth inhibition | item: Cc1ccc2ccc3cccc4ccc1c2c34
Solution: -2
